// merged dataset of pKi values, system = the protein given by its sequence, multiple refs
Sequence of the target: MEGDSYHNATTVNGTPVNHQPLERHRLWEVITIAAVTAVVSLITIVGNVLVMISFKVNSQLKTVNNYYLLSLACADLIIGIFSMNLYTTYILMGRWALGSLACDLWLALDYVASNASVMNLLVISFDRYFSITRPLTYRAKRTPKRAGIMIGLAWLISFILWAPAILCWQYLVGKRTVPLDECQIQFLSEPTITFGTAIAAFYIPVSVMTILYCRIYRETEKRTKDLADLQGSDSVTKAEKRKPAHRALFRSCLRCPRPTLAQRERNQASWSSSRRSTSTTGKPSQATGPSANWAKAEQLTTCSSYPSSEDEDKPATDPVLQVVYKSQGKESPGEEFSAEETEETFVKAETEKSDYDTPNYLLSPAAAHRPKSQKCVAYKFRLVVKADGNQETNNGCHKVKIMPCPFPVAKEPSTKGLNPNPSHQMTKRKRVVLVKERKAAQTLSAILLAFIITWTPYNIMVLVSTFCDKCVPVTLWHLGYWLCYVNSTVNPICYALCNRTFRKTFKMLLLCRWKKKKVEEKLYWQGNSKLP
pKi: −log10 of the molar value.
Measurement Kind: pKi

Example results:
Molecule: CCN(CC)CCCCC1CCN(CC(=O)N2c3ccccc3C(=O)Nc3cccnc32)CC1
Measurement Kind: pKi
Measured Result: 6.08

Molecule: Cc1nccn1CC#CCOc1ccon1
Measurement Kind: pKi
Measured Result: 6.68

Molecule: OC(CCCN1CCCCC1)(c1ccccc1)C1CCCCC1 (stereo not drawn)
Measurement Kind: pKi
Measured Result: 7.08

Molecule: Cc1n(CC#CCOc2ccon2)cc[n+]1-c1ccc(Br)cc1
Measurement Kind: pKi
Measured Result: 7.22

Molecule: CCOC(=O)C1CN2CC(CCC2COCc2ccccc2)C1=O (stereo not drawn)
Measurement Kind: pKi
Measured Result: 6.25

Molecule: CN(C)CCON=C(C=Cc1ccc(O)cc1)c1ccccc1F
Measurement Kind: pKi
Measured Result: 5.52

Molecule: Cc1n(CC#CCN2OCCC2=O)cc[n+]1C
Measurement Kind: pKi
Measured Result: 6.88

Molecule: C[C@@H]1O[C@@H](OC[C@H]2O[C@@H](Oc3c(-c4ccc(O)c(O)c4)oc4cc(O)cc(O)c4c3=O)[C@H](O)[C@@H](O)[C@@H]2O)[C@H](O)[C@H](O)[C@H]1O
Measurement Kind: pKi
Measured Result: 7.45

Molecule: Cc1n(CC#CCOC2=NOCC2)cc[n+]1C
Measurement Kind: pKi
Measured Result: 7.29

1. COc1ccccc1CNCCCCCCNCCCCCCCCNCCCCCCNCc1ccccc1OC
2. Cc1nccn1CC#CCOC1=NOCC1
IN: Short answer wanted: higher pKi, 1 or 2 ? Kindly state the label of the option you pick.
OUT: 2
(2: 8.21, 1: 6.50)
